Measured target: human CB2 receptor (hCB2) (Homo sapiens)
Sequence (P34972 whole entry): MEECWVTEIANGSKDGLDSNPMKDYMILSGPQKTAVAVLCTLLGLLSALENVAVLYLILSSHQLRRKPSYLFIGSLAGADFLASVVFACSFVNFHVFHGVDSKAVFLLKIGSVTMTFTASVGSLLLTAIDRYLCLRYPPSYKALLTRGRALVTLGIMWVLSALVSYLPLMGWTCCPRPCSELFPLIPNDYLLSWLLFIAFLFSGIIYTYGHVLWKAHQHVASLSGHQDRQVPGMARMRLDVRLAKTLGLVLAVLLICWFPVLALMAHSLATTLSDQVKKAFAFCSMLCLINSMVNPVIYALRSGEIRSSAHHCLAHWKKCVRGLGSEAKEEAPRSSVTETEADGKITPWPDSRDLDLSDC
Protocol notes: cAMP assay at human CB2 receptor
Format: cell-based
Condition: hCB2R; maximum measurable range 30 μM; read-out: EC50 (Potency at Human CB2 determined by cAMP Assay)
pEC50: −log10 of the molar value.
Reported endpoint: pEC50

Dear colleague, I am looking for the recorded pEC50 of the following compound: `CN1CCc2c(c(-c3cc(F)c(F)cc3F)nn2C(=O)N[C@@H](CO)c2ccccc2)C1`
< 6.00

Dear colleague, I am looking for the recorded pEC50 of the following compound: `CN1CCc2c(c(-c3cc(F)c(F)cc3F)nn2C(=O)N[C@H](C(N)=O)C(C)(C)C)C1`
< 6.00

Dear colleague, I am looking for the recorded pEC50 of the following compound: `CN1CCc2c(c(-c3cc(F)c(F)cc3F)nn2C(=O)N[C@H](C(=O)N2CCC[C@H]2C(N)=O)C(C)(C)C)C1`
< 6.00

Dear colleague, I am looking for the recorded pEC50 of the following compound: `CN1CCc2c(c(-c3cc(F)c(F)cc3F)nn2C(=O)N[C@H](C(=O)O)C(C)(C)C)C1`
< 4.52

Dear colleague, I am looking for the recorded pEC50 of the following compound: `CNC(=O)[C@@H](NC(=O)n1nc(-c2cc(C(F)(F)F)ccc2F)c2c1CCNC2)C(C)(C)C`
< 6.00

Dear colleague, I am looking for the recorded pEC50 of the following compound: `CC(C)(C)c1cc(NC(=O)n2nc(-c3ccc(F)c(F)c3)c3c2CCOC3)no1`
> 6.00
